# PROCEDURE TEXT: Inhibition of Rho/MRTF/SRF mediated signaling (unknown origin) assessed as reduction in MRTF/SRF-regulated gene transcription by SRE-luciferase expression based assay
# Parameters: species or system Homo sapiens
pIC50: −log10 of the molar value.
Returns one of MET or NOT MET; MET when pIC50 is >= 7.

Study these solved cases before continuing.
SMILES ENTRY | LABEL VALUE
Cc1ccc(-c2nnc(SCCC(=O)O)o2)cc1 | MET
O=C(O)CCSc1nnc(-c2cccc(Cl)c2)o1 | NOT MET

Record O=C(O)CCSc1nnc(-c2ccc(Cl)cc2)o1 ; criterion: pIC50 no lower than 7. Met? NOT MET

Item CCOC(=O)CCSc1nnc(-c2ccc(Cl)cc2Cl)o1 with pIC50 of 7 or above? MET

For this compound, is measured pIC50 7 or higher? COc1ccc(-c2nnc(SCCC(=O)O)o2)c(Cl)c1 MET

# bool: pIC50 of COc1cccc(-c2nnc(SCCC(=O)O)o2)c1 >= 7 NOT MET

Is pIC50 at least 7? Consider O=C(O)CCCSc1nnc(-c2ccc(Cl)cc2Cl)o1 MET

hey, is pIC50 for this one >= 7? O=C(O)CCSc1nnc(-c2ccccc2)o1 NOT MET

Given the entry Cc1ccc(-c2nnc(SCCC(=O)O)o2)c(Cl)c1 , answer whether its pIC50 meets or surpasses 7. MET

Determine whether measured pIC50 meets or exceeds 7 for Cc1cccc(-c2nnc(SCCC(=O)O)o2)c1 NOT MET
